Reference source: patent US20180185504A1

For each record, write down the corresponding kon.
Target: T1, hPRLR.mFc (soluble dimeric human PRLR) (human)
T1 construct: dimeric PRLR construct
T1 chain: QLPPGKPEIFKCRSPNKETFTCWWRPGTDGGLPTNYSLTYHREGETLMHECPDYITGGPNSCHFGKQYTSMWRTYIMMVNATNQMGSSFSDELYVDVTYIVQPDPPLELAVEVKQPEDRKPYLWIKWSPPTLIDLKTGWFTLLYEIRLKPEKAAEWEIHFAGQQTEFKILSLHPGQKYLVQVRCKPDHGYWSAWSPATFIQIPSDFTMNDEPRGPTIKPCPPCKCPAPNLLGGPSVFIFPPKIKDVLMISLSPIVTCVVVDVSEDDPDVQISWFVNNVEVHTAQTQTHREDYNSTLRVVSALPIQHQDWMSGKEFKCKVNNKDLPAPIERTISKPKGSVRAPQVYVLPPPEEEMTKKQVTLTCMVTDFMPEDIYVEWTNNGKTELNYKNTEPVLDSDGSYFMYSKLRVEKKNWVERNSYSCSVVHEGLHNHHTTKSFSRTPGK
Assay: SPR (Biacore), antibody capture, 37 C
Experimental: Measurements were conducted on a T200 Biacore instrument. Kinetic association (kₐ) and dissociation (kd) rate constants were determined by processing and fitting the data to a 1:1 binding model using Scrubber 2.0 curve fitting software.
Give the figure together with its unit, number first.

Tell me the measured kon of H1H6765P (antibody, human IgG1, V domains shown, human IgG1 Fc (H1H)) VH: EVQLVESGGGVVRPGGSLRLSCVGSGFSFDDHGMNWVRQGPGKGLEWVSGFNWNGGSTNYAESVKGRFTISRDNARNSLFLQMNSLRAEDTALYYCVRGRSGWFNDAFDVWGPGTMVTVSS VL: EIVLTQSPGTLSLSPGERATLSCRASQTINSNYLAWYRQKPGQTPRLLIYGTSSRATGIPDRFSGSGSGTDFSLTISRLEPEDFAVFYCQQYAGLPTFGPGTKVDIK , please.
801000 M⁻¹ s⁻¹

// lookup kon for H1H6953N (antibody, human IgG1, V domains shown, also called H1M6953N) VH: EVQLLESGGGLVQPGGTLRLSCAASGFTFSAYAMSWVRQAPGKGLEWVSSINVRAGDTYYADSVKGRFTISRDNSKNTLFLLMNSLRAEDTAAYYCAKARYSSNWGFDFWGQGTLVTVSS VL: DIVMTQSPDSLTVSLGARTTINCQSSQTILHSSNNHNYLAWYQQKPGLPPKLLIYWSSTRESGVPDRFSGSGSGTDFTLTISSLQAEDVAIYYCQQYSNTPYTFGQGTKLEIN
1.47e+06 M⁻¹ s⁻¹

I'd like to know its kon. The binder in question is H1H6793P (antibody, human IgG1, V domains shown, human IgG1 Fc (H1H)) VH: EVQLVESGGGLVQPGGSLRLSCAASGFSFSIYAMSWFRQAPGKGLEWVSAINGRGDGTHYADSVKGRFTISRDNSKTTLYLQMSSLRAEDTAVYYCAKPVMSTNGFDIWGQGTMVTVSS VL: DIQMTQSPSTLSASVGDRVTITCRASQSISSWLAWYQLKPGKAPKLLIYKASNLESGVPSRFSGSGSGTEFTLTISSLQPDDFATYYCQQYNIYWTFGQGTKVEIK
410000 M⁻¹ s⁻¹
